B1: GMCL1 (parent)
chain: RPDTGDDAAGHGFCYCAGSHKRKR

variants of: B1; assay: protein stability index of a GFP-peptide fusion (GPS, HEK-293T) (PSI 1-6); higher = more stable; conditions: c terminus: a fixed tail appended;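 note: lentivirally expressed fusions sorted by FACS into six bins by GFP to DsRed ratio, PSI derived from sequencing read proportions per bin multiplied by bin number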
Each record here notes measured protein stability index.
The reply should be a number, written without any unit.

Solved cases (8 shown):
{"columns": ["seq-text", "protein stability index"],
 "data": [
  ["RPDTGDDFAGHGFCYCAGSHKRKR [A8F]", 2.61],
  ["RPSTGDDAAGHGFCYCAGSHKRKR [D3S]", 3.14],
  ["RPDTGDDAAGHKFCYCAGSHKRKR [G12K]", 3.21],
  ["RYDTGDDAAGHGFCYCAGSHKRKR [P2Y]", 3.41],
  ["RPDTGDDAAGHGFCYCAGSHERKR [K21E]", 2.57],
  ["RPDTGDDAAGHGFCYCAGSPKRKR [H20P]", 2.85],
  ["RPDFGDDAAGHGFCYCAGSHKRKR [T4F]", 3.28],
  ["RPDTGDDAAGHGFCYCAGSHKVKR [R22V]", 2.65]
]}

Recorded protein stability index for RPDTGDDAAGHGFCYCATSHKRKR [G18T] , please?
3.53

Need protein stability index, item RPDTGDDAAGHGFCYCAGNHKRKR [S19N]
3.31

Value lookup for protein stability index; key = RPDTGDDAAGHGFCYCCGSHKRKR [A17C]
2.05

Requested field: protein stability index. Item: RPDTGDDAAGHGFCYCAGSHKMKR [R22M]
2.12

Which measured protein stability index value corresponds to RPDTGDDAAGHGFCYCAGSHKRRR [K23R] ?
2.37
